B1: LINE1-mini (parent)
chain: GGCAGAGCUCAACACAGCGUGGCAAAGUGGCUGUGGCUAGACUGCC

- Variants of: B1
- experimentNotes: self-cleavage, relative activity (ratio to wild type); higher = more cleavage; in vitro, sequencing; the parent is a self-cleaving ribozyme
parameterMeasured: self-cleavage
Number only, please.

Q: Supply recorded self-cleavage for A24C G33C here.
A: 0.04

Q: Supply recorded self-cleavage for A12U G27A here.
A: 0.3

Q: Supply recorded self-cleavage for A6C G19C here.
A: 0.3

Q: Supply recorded self-cleavage for `G17C` here.
A: 0.79

Q: Supply recorded self-cleavage for A16U C45U here.
A: 0.11

Q: Supply recorded self-cleavage for C15G G33A here.
A: 0.03

Q: Supply recorded self-cleavage for C3G A11U here.
A: 0.03

Q: Supply recorded self-cleavage for C8G A16G here.
A: 0.11

Q: Supply recorded self-cleavage for G33U U34A here.
A: 0.08

Q: Supply recorded self-cleavage for C8A A14C here.
A: 0.18

Q: Supply recorded self-cleavage for G1U C3U here.
A: 0.27

Q: Supply recorded self-cleavage for G2A G19C here.
A: 0.19

Q: Supply recorded self-cleavage for G17C G30A here.
A: 0.94

Q: Supply recorded self-cleavage for C31A C42G here.
A: 0.05

Q: Supply recorded self-cleavage for C3A U38C here.
A: 0.26

Q: Supply recorded self-cleavage for G2U G27A here.
A: 0.15

Q: Supply recorded self-cleavage for A4C A11U here.
A: 0.04

Q: Supply recorded self-cleavage for U20G G27A here.
A: 0.72

Q: Supply recorded self-cleavage for U20G U43C here.
A: 0.04

Q: Supply recorded self-cleavage for A16U U20G here.
A: 0.03

Q: Supply recorded self-cleavage for G1U C8A here.
A: 0.08

Q: Supply recorded self-cleavage for C3U A39U here.
A: 0.38
